Target: procaspase-7 (Homo sapiens, UniProt P55210)
Construct: His6 (C); made in house; host or cells: E. coli BL21(DE3)RP, pET-21b
Sequence (P55210 1-303): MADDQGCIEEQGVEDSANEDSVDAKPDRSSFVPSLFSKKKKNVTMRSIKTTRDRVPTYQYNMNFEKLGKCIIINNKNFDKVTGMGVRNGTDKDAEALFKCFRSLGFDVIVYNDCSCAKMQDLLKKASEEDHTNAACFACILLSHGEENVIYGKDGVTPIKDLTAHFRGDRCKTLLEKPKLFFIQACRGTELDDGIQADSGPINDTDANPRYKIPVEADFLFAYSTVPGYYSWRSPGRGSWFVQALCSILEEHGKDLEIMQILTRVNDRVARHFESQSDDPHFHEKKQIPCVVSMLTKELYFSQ
Experiment: Executioner procaspase-7 activation assay (Ac-DEVD-AFC fluorogenic substrate)
Assay type: biochemical
Settings: incubation with compound for 5 h at 37° C.; 100 nM procaspase
observedProperty: EC50

A selection of reference data follows.
Note to self: EC50 recorded for O=C(Nc1cccc(-c2ccc3c(c2)CCO3)c1)c1cc2cccc(OC(F)(F)F)c2oc1=O was > 100 µM

COc1ccc(-c2cccc(NC(=O)c3cc4cccc(O)c4oc3=O)c2)cc1OC yielded EC50 of 0.5 to 10 µM

Lookup result for O=C(Nc1cccc(-c2ccc3[nH]c(=O)[nH]c3c2)c1)c1cc2cccc(O)c2oc1=O ; measured EC50: > 100 µM

The molecule listed as COc1cccc2cc(C(=O)Nc3cccc(-c4ccc5c(c4)OCCO5)c3)c(=O)oc12 shows EC50 equal to > 100 µM

Entry O=C(Nc1cccc(-c2ccncc2)c1)c1cc2cccc(O)c2oc1=O ; EC50 = 50 to 200 µM

GET /value?item= Cn1nccc1-c1cccc(NC(=O)c2cc3cccc(O)c3oc2=O)c1 &field=EC50 returns 10 to 50 µM

New cases:
# molecule COc1cncc(-c2cccc(NC(=O)c3cc4cccc(O)c4oc3=O)c2)c1 ; its EC50 = > 100 µM

// recorded EC50 for O=C(Nc1cccc(-c2ccc3occc(=O)c3c2)c1)c1cc2cccc(O)c2oc1=O : > 100 µM

The measurements presented in this section are drawn from patent US8642788B2.
